# assayNotes: Approximate solubility of Compound I-1-Acid in different solvents (manual dilution, visual observation)
# Assay type: physicochemical
# conditionSummary: 1-butanol; room temperature
Residues, ends and D or L forms follow the SMILES beside them. *: point of attachment. Palmitoyl = CCCCCCCCCCCCCCCC(=O)*
endpointLabel: solubility

Ask: Please supply the value of reported solubility for the item CCCCCCCCCCCCCCCC(=O)N1CCC[C@H]1C(=O)N1CCC[C@H]1C(=O)NCC(=O)N[C@@H](Cc1ccc(O)cc1)C(=O)O [Compound I-1-Acid] (Palmitoyl-PPGY-OH)
Reply: < 1000 µg/mL

* * *

# assayNotes: Approximate solubility of Compound I-1 (amorphous) in different solvents (manual dilution, visual observation)
# Type: physicochemical
# conditionSummary: Methyl isobutyl ketone, ambient laboratory temperature
Residues, ends and D or L forms follow the SMILES beside them. *: point of attachment. Palmitoyl = CCCCCCCCCCCCCCCC(=O)*
endpointLabel: solubility

Ask: Please supply the value of reported solubility for the item CCCCCCCCCCCCCCCC(=O)N1CCC[C@H]1C(=O)N1CCC[C@H]1C(=O)NCC(=O)N[C@@H](Cc1ccc(O)cc1)C(=O)[O-].[Na+] [Compound I-1 (Amorphous)] (Palmitoyl-PPGY-OH)
Reply: 1200 to 1400 µg/mL
